Reported kon values for a set of binders
MEASUREMENT_TARGET: T1, human VEGF (hVEGF) (human, UniProt P15692 181-395)
T1 construct: also called VEGF-A
T1 sequence: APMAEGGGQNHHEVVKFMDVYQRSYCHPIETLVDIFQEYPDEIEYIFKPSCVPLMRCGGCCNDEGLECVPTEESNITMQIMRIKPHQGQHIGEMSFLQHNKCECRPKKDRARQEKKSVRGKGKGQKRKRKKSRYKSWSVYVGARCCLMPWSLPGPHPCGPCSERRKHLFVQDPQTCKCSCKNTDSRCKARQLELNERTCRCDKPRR
TEST_SUMMARY: SPR single-cycle;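 further: fab variants injected over hVEGF immobilized on a CM5 chip (Biacore T200), threefold dilution series from 0.02 to 50 nM, kinetics fitted with a 1:1 Langmuir model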
// note: answer is a bare numeric in M⁻¹ s⁻¹

| BINDER | UNIT_ABBREV | kon |
| --- | --- | --- |
| G6.31 HC-Q81E (Fab, name in Kabat numbering, V domains shown, Fab) VH: EVQLVESGGGLVQPGGSLRLSCAASGFTISDYWIHWVRQAPGKGLEWVAGITPAGGYTYYADSVKGRFTISADTSKNTAYLEMNSLRAEDTAVYYCARFVFFLPYAMDYWGQGTLVTVSS VL: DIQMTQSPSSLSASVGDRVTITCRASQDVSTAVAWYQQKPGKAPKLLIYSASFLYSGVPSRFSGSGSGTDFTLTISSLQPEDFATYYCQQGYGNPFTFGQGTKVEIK | M⁻¹ s⁻¹ | 225000 |

Now take the following binder into account.
# binder G6.31 HC-T28E (Fab, name in Kabat numbering, V domains shown, Fab) VH: EVQLVESGGGLVQPGGSLRLSCAASGFEISDYWIHWVRQAPGKGLEWVAGITPAGGYTYYADSVKGRFTISADTSKNTAYLQMNSLRAEDTAVYYCARFVFFLPYAMDYWGQGTLVTVSS VL: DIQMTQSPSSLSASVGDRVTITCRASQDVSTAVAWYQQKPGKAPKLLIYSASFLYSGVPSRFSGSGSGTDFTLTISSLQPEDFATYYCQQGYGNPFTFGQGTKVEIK ; its kon = 621000
